# assay.protocol: Inhibition of KRAS G12D mutant (unknown origin) to CRAF (unknown origin) protein protein interaction
# Parameters: species or system Homo sapiens
Each record here notes measured IC50.
Express it in nM; write the number only.

IC50 recorded for this compound, [2H][C@H]1CN2CCC[C@@]2(COc2nc(N3CC4CCC3CN4)c3cnc(-c4cc(O)cc5ccc(F)c(C#C)c45)c(F)c3n2)C1 (stereo partly drawn) , is 3.95

IC50 recorded for this compound, [2H]C1([2H])CC[C@@]2(COc3nc(N4CC5CCC4CN5)c4cnc(-c5cc(O)cc(Cl)c5C5CC5)c(F)c4n3)C[C@@]([2H])(F)CN12 (stereo partly drawn) , is 13.9

Others:
IC50 recorded for this compound, [2H]C1([2H])CC[C@@]2(COc3nc(N4CC5CCC4CN5)c4cnc(-c5cc(O)cc6ccc(F)c(C#C)c56)c(F)c4n3)C[C@@]([2H])(F)CN12 (stereo partly drawn) , is 5.07

----------
# experimental.target: GTPase KRas/RAF1 (Homo sapiens, UniProt P01116)
# Sequence (P04049 whole entry): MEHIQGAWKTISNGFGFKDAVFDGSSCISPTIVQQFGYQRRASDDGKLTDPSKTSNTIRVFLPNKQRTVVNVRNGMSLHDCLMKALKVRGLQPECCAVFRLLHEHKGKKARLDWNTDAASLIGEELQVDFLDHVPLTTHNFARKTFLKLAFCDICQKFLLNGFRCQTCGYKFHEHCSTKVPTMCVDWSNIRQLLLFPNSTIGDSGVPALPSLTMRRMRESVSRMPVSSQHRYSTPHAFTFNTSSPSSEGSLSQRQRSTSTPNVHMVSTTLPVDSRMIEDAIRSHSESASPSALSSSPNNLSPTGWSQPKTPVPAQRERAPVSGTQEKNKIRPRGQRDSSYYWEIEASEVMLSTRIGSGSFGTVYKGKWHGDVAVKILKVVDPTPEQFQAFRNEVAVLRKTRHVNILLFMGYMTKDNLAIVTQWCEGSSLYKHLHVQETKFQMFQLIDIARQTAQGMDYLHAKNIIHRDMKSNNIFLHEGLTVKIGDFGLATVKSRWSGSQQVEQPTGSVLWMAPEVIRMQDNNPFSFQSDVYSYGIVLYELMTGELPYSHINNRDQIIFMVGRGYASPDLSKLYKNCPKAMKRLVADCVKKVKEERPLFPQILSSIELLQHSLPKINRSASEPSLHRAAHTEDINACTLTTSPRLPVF
# Sequence (P01116 whole entry): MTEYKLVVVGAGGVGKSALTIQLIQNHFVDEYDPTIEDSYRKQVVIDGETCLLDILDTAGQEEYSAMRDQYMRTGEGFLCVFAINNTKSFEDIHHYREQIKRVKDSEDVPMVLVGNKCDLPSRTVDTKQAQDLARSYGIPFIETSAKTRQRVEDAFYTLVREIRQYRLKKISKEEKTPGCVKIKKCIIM
# assay.protocol: Inhibition of KRAS (unknown origin) to CRAF (unknown origin) protein protein interaction
Each record here notes measured pIC50.
Bear in mind: pIC50 is minus log10 of a mol/L concentration; give just that figure.

pIC50 recorded for this compound, [2H][C@H]1CN2CCC[C@@]2(COc2nc(N3CC4CCC3CN4)c3cnc(-c4cc(O)cc5ccc(F)c(C#C)c45)c(F)c3n2)C1 (stereo partly drawn) , is 7.31

Query compound follows.
pIC50 recorded for this compound, [2H]C1([2H])CC[C@@]2(COc3nc(N4CC5CCC4CN5)c4cnc(-c5cc(O)cc6ccc(F)c(C#C)c56)c(F)c4n3)C[C@@]([2H])(F)CN12 (stereo partly drawn) , is 7.22

----------
Each record here notes measured IC50.
# experimental.target: GTPase KRas (Homo sapiens, UniProt P01116, G12D)
# Sequence (P01116 whole entry G12D): as the sequence (P01116 whole entry) above, with G12D counted along it
# assay.protocol: Inhibition of human KRAS G12D mutant in human AGS cells assessed as reduction in phosphorylated ERK level incubated for 3 hrs

The molecule [2H]C1([2H])CC[C@]2(COc3nc(N4CC5CCC4CN5)c4cnc(-c5cc(O)cc(Cl)c5C5CC5)c(F)c4n3)C[C@]([2H])(F)CN12 (stereo not given in full) , tested on GTPase KRas (Homo sapiens, UniProt P01116, G12D), showed IC50 of > 50 nM

The molecule Oc1cc(Cl)c(C2CC2)c(-c2ncc3c(N4CC5CCC4CN5)nc(OC[C@]45CCCN4C[C@@H](F)C5)nc3c2F)c1 (stereo not given in full) , tested on GTPase KRas (Homo sapiens, UniProt P01116, G12D), showed IC50 of > 50 nM

The molecule Oc1cc(Cl)c(C2CC2)c(-c2ncc3c(N4CC5CCC4CN5)nc(OC[C@@]45CCCN4C[C@H](F)C5)nc3c2F)c1 (stereo not given in full) , tested on GTPase KRas (Homo sapiens, UniProt P01116, G12D), showed IC50 of ≤ 50 nM

----------
# experimental.target: GTPase KRas (Homo sapiens, UniProt P01116, G12D)
# assay.protocol: Inhibition of human KRAS G12D mutant in human AGS cells assessed as reduction in phosphorylated ERK level incubated for 3 hrs
pIC50: −log10 of the molar value.
Each record here notes measured pIC50.

pIC50 recorded for this compound, [2H]C1([2H])CC[C@@]2(COc3nc(N4CC5CCC4CN5)c4cnc(-c5cc(O)cc(F)c5C5CC5)c(F)c4n3)C[C@@]([2H])(F)CN12 (some centres not stated) , is < 7.30

pIC50 recorded for this compound, Oc1ccc(C(F)(F)F)c(-c2ncc3c(N4CC5CCC4CN5)nc(OCC45CCCN4CCC5)nc3c2F)c1 (configuration not stated) , is < 9.00

pIC50 recorded for this compound, Oc1cc(Cl)c(C(F)(F)F)c(-c2ncc3c(N4CC5CCC4CN5)nc(OCC45CCCN4CCC5)nc3c2F)c1 (configuration not stated) , is < 9.00

Others:
pIC50 recorded for this compound, [2H]C1([2H])CC[C@@]2(COc3nc(N4CC5CCC4CN5)c4cnc(-c5cc(O)cc(Cl)c5C5CC5)c(F)c4n3)C[C@@]([2H])(F)CN12 (some centres not stated) , is ≥ 7.30

pIC50 recorded for this compound, [2H][C@H]1CN2CCC[C@@]2(COc2nc(N3CC4CCC3CN4)c3cnc(-c4cc(O)cc5ccc(F)c(C#C)c45)c(F)c3n2)C1 (some centres not stated) , is ≥ 7.30

pIC50 recorded for this compound, [2H]C1([2H])CC[C@@]2(COc3nc(N4CC5CCC4CN5)c4cnc(-c5cc(O)cc6ccc(F)c(C#C)c56)c(F)c4n3)C[C@@]([2H])(F)CN12 (some centres not stated) , is ≥ 7.30

pIC50 recorded for this compound, [2H]C1([2H])CC[C@@]2(COc3nc(N4CC5CCC4CN5)c4cnc(-c5cc(O)cc6ccc(F)c(F)c56)c(F)c4n3)C[C@@]([2H])(F)CN12 (some centres not stated) , is ≥ 7.30
